molecular target: UniProt:Q16581; test: Agonist activity at human C3a receptor in human U937 cells assessed as induction of intracellular calcium release; assay type: functional, cell-based, U-937; settings: read-out: EC50
Peptide text beside a SMILES is read from it.
measurementName: pEC50
FYI, pEC50 means -log10 of a concentration in mol per litre.

Here is how some compounds turned out for pEC50.
compound	pEC50
CC(C)C[C@H](NC(=O)[C@@H](NC(=O)[C@H](CC(C)C)NC(=O)[C@@H](N)Cc1ccccc1)[C@@H](C)O)C(=O)N[C@@H](C)C(=O)N[C@@H](CCCN=C(N)N)C(N)=O (H-FLTLAR-NH2)	4.43
CC(C)C[C@H](NC(=O)CNC(=O)[C@H](Cc1c[nH]c2ccccc12)NC(=O)[C@@H](N)Cc1ccccc1)C(=O)N[C@@H](C)C(=O)N[C@@H](CCCNC(=N)N)C(=O)O (H-FWGLAR-OH)	6.33

// moving on: another record for pEC50
# compound CC(C)C[C@H](NC(=O)[C@@H]1CCCN1C(=O)[C@H](CCCCN)NC(=O)[C@@H](N)Cc1ccccc1)C(=O)N[C@@H](C)C(=O)N[C@@H](CCCNC(=N)N)C(=O)O (H-FKPLAR-OH) ; its pEC50 = 4.48

###

biological target: C3a anaphylatoxin chemotactic receptor (Homo sapiens, UniProt Q16581); test: Displacement of [125I-C3a] from C3a receptor in human PBMC by scintillation counting; conditions: read-out: IC50
Sequence (Q16581 whole entry): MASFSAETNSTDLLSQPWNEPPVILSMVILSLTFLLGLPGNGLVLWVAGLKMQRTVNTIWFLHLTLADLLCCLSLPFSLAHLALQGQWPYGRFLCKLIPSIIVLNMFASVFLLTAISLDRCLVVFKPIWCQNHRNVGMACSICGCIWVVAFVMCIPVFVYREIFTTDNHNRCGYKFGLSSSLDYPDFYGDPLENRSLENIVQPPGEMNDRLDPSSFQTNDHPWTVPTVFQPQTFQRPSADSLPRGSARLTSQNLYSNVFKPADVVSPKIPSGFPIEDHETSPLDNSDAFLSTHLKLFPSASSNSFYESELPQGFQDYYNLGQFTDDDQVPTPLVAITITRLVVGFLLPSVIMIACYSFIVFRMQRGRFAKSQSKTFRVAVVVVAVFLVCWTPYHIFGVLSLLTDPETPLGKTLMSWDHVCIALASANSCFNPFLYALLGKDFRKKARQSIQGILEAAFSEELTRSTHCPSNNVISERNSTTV
Peptide text beside a SMILES is read from it.
measurementName: pIC50
FYI, pIC50 means -log10 of a concentration in mol per litre.

compound	testResult
CC(C)C[C@H](NC(=O)[C@H](C)NC(=O)[C@H](CC(C)C)NC(=O)[C@@H](N)Cc1cnc[nH]1)C(=O)N[C@@H](C)C(=O)N[C@@H](CCCNC(=N)N)C(=O)O (H-HLALAR-OH)	5.20

# compound CC(C)C[C@H](NC(=O)[C@@H]1CCCN1C(=O)[C@H](Cc1c[nH]c2ccccc12)NC(=O)[C@@H](N)Cc1ccccc1)C(=O)N[C@@H](C)C(=O)N[C@@H](CCCNC(=N)N)C(=O)O (H-FWPLAR-OH) ; its pIC50 = 6.56

# compound CC(C)C[C@H](NC(=O)[C@@H](NC(=O)[C@H](CC(C)C)NC(=O)[C@@H](N)Cc1ccccc1)[C@@H](C)O)C(=O)N[C@@H](C)C(=O)N[C@@H](CCCNC(=N)N)C(=O)O (H-FLTLAR-OH) ; its pIC50 = 7.38

# compound `N=C(N)NCCC[C@H](NC(=O)COCC(c1ccccc1)c1ccccc1)C(=O)O` ; its pIC50 = 6.85

###

target: C3a anaphylatoxin chemotactic receptor (Homo sapiens); experiment: Agonist activity at human C3a receptor in human U937 cells assessed as induction of intracellular calcium release at 1 mM; assay type: functional, cell-based; settings: U-937
The source made the active and inactive calls. No cut-off for these calls is given here. Peptide text beside a SMILES is read from it.
measurementName: Activity

molecule	testedTarget	testResult
N=C(N)NCCC[C@H](NC(=O)COCC(c1ccccc1)c1ccccc1)C(=O)O	C3a anaphylatoxin chemotactic receptor (Homo sapiens)	inactive
CC(C)C[C@H](NC(=O)[C@@H]1CCCN1C(=O)[C@H](CCCCN)NC(=O)[C@@H](N)Cc1cnc[nH]1)C(=O)N[C@@H](C)C(=O)N[C@@H](CCCNC(=N)N)C(=O)O (H-HKPLAR-OH)	C3a anaphylatoxin chemotactic receptor (Homo sapiens)	inactive
CC(C)C[C@H](NC(=O)[C@@H](NC(=O)[C@H](CC(C)C)NC(=O)[C@@H](N)CCCNC(=N)N)[C@@H](C)O)C(=O)N[C@@H](C)C(=O)N[C@@H](CCCNC(=N)N)C(=O)O (H-RLTLAR-OH)	C3a anaphylatoxin chemotactic receptor (Homo sapiens)	inactive

###

Readings of pEC50 for the listed molecules
target: UniProt:Q16581; test: Agonist activity at human C3a receptor in human U937 cells assessed as induction of intracellular calcium release; format: functional, cell-based, U-937; conditions: read-out: EC50
Peptide text beside a SMILES is read from it.
FYI, pEC50 means -log10 of a concentration in mol per litre.

# molecule CC(C)C[C@H](NC(=O)[C@@H]1CCCN1C(=O)[C@H](Cc1c[nH]c2ccccc12)NC(=O)[C@@H](N)Cc1ccccc1)C(=O)N[C@@H](C)C(=O)N[C@@H](CCCNC(=N)N)C(=O)O (H-FWPLAR-OH) ; its pEC50 = 6.24

# molecule CC[C@H](C)[C@H](NC(=O)[C@H](C)NC(=O)[C@H](CC(N)=O)NC(=O)[C@@H](NC(=O)[C@@H](NC(=O)[C@H](CCCNC(=N)N)NC(=O)[C@H](CCCCN)NC(=O)[C@H](C)NC(=O)[C@H](CCC(=O)O)NC(=O)[C@H](Cc1ccccc1)NC(=O)[C@H](C)NC(=O)[C@@H](NC(=O)[C@@H](NC(=O)[C@@H](N)Cc1c[nH]c2ccccc12)C(C)C)[C@@H](C)O)[C@@H](C)O)[C@@H](C)CC)C(=O)N[C@@H](Cc1c[nH]c2ccccc12)C(=O)O (H-WVTAFEAKRTINAIW-OH) ; its pEC50 = 4.62

# molecule CC(C)C[C@H](NC(=O)CNC(=O)[C@H](CC(C)C)NC(=O)[C@@H](N)Cc1cnc[nH]1)C(=O)N[C@@H](C)C(=O)N[C@@H](CCCNC(=N)N)C(=O)O (H-HLGLAR-OH) ; its pEC50 = 5.42

# molecule CC(C)C[C@H](NC(=O)[C@H](C)NC(=O)[C@H](CC(C)C)NC(=O)[C@@H](N)Cc1ccccc1)C(=O)N[C@@H](C)C(=O)N[C@@H](CCCNC(=N)N)C(=O)O (H-FLALAR-OH) ; its pEC50 = 4.00

# molecule `CC(C)C[C@H](NC(=O)[C@@H](NC(=O)[C@H](CC(C)C)NC(=O)[C@@H](N)Cc1ccccc1)C(C)C)C(=O)N[C@@H](C)C(=O)N[C@H](CCCN=C(N)N)C(=O)O` ; its pEC50 = 4.24

###

target: C3a anaphylatoxin chemotactic receptor (Homo sapiens); assay: Agonist activity at human C3a receptor in human U937 cells assessed as induction of intracellular calcium release; assay type: functional, cell-based, U-937; settings: read-out: EC50
Square brackets hold non-standard residues; d marks the D form. Peptide text beside a SMILES is read from it. Nle = CCCC[C@H](N)C(=O)O
Readings of pEC50 for the listed compounds
FYI, pEC50 means -log10 of a concentration in mol per litre.

Here is how some compounds turned out for pEC50.
compound	testedTarget	testResult
CC(C)C[C@H](NC(=O)CNC(=O)[C@H](CC(C)C)NC(=O)[C@H](CCCCN)NC(=O)[C@H](CO)NC(=O)[C@H](C)NC(=O)[C@H](CCCN=C(N)N)NC(=O)[C@H](Cc1ccc(O)cc1)NC(=O)[C@H](CCCCN)NC(=O)[C@H](CCCCN)NC(=O)CNC(=O)[C@H](Cc1c[nH]c2ccccc12)NC(=O)[C@@H](N)Cc1c[nH]c2ccccc12)C(=O)N[C@@H](C)C(=O)N[C@@H](CCCN=C(N)N)C(=O)O (H-WWGKKYRASKLGLAR-OH)	C3a anaphylatoxin chemotactic receptor (Homo sapiens)	5.89
CC[C@H](C)[C@H](NC(=O)[C@@H](N)Cc1ccccc1)C(=O)N1CCC[C@H]1C(=O)N[C@@H](CC(C)C)C(=O)N[C@@H](C)C(=O)N[C@@H](CCCNC(=N)N)C(=O)O (H-FIPLAR-OH)	C3a anaphylatoxin chemotactic receptor (Homo sapiens)	6.02
CSCC[C@H](NC(=O)[C@H](CC(=O)O)N(C)C(=O)[C@H](CCCCN)NC(=O)[C@H](Cc1ccccc1)NC(=O)[C@H](CO)NC(=O)[C@@H](N)Cc1ccc(O)cc1)C(=O)N1CCC[C@H]1C(=O)N[C@@H](CC(C)C)C(=O)N[C@H](C)C(=O)N[C@@H](CCCNC(=N)N)C(=O)O	C3a anaphylatoxin chemotactic receptor (Homo sapiens)	5.85

// moving on: another record for pEC50
# compound CCCC[C@H](NC(=O)[C@@H](N)Cc1ccccc1)C(=O)N1CCC[C@H]1C(=O)N[C@@H](CC(C)C)C(=O)N[C@@H](C)C(=O)N[C@@H](CCCN=C(N)N)C(=O)O (H-F[Nle]PLAR-OH) ; its pEC50 = 5.74

###

biological target: C3a anaphylatoxin chemotactic receptor (Homo sapiens, UniProt Q16581); experiment: Antagonist activity at human C3a receptor in human U937 cells assessed as inhibition of intracellular calcium mobilization; format: functional, cell-based, U-937
Readings of IC50 for the listed compounds
Numeric only. Scale: nM

smiles	testedTarget	IC50 [nM]
N=C(N)NCCC[C@H](NC(=O)COCC(c1ccccc1)c1ccccc1)C(=O)O	C3a anaphylatoxin chemotactic receptor (Homo sapiens, UniProt Q16581)	1300

// moving on: another record for IC50
Record `CC(C)C[C@H](NC(=O)[C@@H](N)Cc1ccccc1)C(=O)N[C@H](C(=O)N[C@@H](CC1CCCCC1)C(=O)N[C@@H](C)C(=O)N[C@@H](CCCNC(=N)N)C(=O)O)[C@@H](C)O` / C3a anaphylatoxin chemotactic receptor (Homo sapiens, UniProt Q16581), IC50 recorded as 240
